Ref: paper PMC8949600

# MBC per entry
System: MRSA (NCTC 12493)
Type: cell-based
ASSAY_CONTEXT: NCTC 12493
Ends that are not written are not given here.

stdin: Could you share which MBC value was measured for KKFVDLKKIANIL-NH2 [Peptide T1CEh-KK] ?
stdout: > 512 µM

stdin: Request: FVDLKKIANIL-NH2 [Peptide T1CEh-t]
stdout: > 512 µM

stdin: Request: FVDLKKIANII-NH2 [Peptide T1CEa-t]
stdout: > 512 µM

* * *

# MBC per entry
System: P. aeruginosa (ATCC 27853)
Format: cell-based
ASSAY_CONTEXT: ATCC 27853
Ends that are not written are not given here.

Before answering, review these 2 worked examples.
{"columns": ["SUBSTANCE", "VAL"],
 "data": [
  ["FVDLKKIANIL-NH2 [Peptide T1CEh-t]", "> 512 µM"],
  ["KKFVPLKKIANIL-NH2 [Peptide T1CEh-KKP]", "> 512 µM"]
]}

Next up:
stdin: Could you share which MBC value was measured for FVDLKKIANII-NH2 [Peptide T1CEa-t] ?
stdout: > 512 µM
